readout.kind: melting point

Some molecules with known melting point results, for comparison:
1) Cc1ccc(CON2C(C)(C)CC(O)CC2(C)C)cc1: 92.5 to 93 °C
2) COc1cc(OCc2ccccn2)c(C=CC(=O)c2ccc(S(N)(=O)=O)cc2)cc1-c1cccs1: 188 to 189 °C
3) O=C(NCc1ccccc1)c1ccc(OC2SCC(O)C(O)C2O)cn1 (configuration not stated): 89 to 91 °C
4) O=C(N[C@H]1C[C@H](C(=O)O)Nc2cc(Cl)cc(Cl)c21)C1c2ccccc2-c2ccccc21 (relative stereo): 266 to 268 °C
5) O=C(Nc1cccc2c(=O)cc(-c3nnn[nH]3)oc12)c1ccc2c(c1)CC(CCCc1ccccc1)O2 (configuration not stated): 234 to 235 °C
6) COc1ccc(CNc2nnc(Cl)c3cc(Cl)ccc23)cc1Cl: 168 to 170 °C

Now take the following molecule into account.
Exercise: Which melting point value belongs to O=C(O)c1cc2cc(OC(F)F)ccc2nc1C(=O)O ?
Key: 226 °C
